experiment: Metabolic stability in human liver microsomes; format: in vitro ADME; conditions: liver microsomes (pooled); human; scaled from CLint(mic) with 45 mg microsomal protein/g liver and 20 g liver/kg
The entries below come with measured CLint scaled at 1 μM values attached.
Use mL/min/kg as the unit, but write only the number.

Compound | CLint scaled at 1 μM, mL/min/kg
[2H]C([2H])([2H])Oc1ccc2c(ccn2C([2H])([2H])[C@]([2H])(N(C([2H])([2H])[2H])C([2H])([2H])[2H])C([2H])([2H])[2H])c1 | 11.1
[2H]C([2H])([2H])Oc1ccc2c(ccn2C([2H])([2H])[C@]([2H])(N(C)C)C([2H])([2H])[2H])c1 | 10.4

query: Any idea what CLint scaled at 1 μM was measured for COc1ccc2c(ccn2C[C@@H](C)N(C)C)c1 [AAZ-A-154, reference compound] ?
result: 14.8

query: Any idea what CLint scaled at 1 μM was measured for [2H]C([2H])([2H])N(C([2H])([2H])[2H])[C@]([2H])(C([2H])([2H])[2H])C([2H])([2H])n1ccc2cc(OC)ccc21 ?
result: 11.4

query: Any idea what CLint scaled at 1 μM was measured for [2H]C([2H])([2H])[C@@]([2H])(N(C)C)C([2H])([2H])n1ccc2cc(OC)ccc21 ?
result: 13.5

----------
The entries below come with measured inhibition at 10 µM values attached.
Biological target: 5-HT2C receptor (Homo sapiens, UniProt P28335)
Construct: host or cells: unnamed cell lines
Sequence (P28335 33-458): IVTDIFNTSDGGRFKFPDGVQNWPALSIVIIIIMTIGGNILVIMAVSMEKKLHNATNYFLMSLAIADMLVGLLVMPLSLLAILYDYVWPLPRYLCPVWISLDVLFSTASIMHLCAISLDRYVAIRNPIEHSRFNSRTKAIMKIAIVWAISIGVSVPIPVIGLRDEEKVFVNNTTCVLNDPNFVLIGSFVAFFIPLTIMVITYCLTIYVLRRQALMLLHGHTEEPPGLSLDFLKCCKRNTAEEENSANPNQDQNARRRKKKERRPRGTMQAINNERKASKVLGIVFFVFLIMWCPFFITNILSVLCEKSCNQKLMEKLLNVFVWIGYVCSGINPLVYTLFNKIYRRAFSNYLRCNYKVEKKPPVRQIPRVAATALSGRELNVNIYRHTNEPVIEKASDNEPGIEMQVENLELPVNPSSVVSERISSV
Test: Calcium mobilization assay, antagonist format, 5-HT2C
Type: cell-based
Conditions: @10 µM; agonist challenge at EC80
Method: Protocol—in vitro testing at select 5-hydroxytryptamine (5-HT; serotonin) receptors was conducted. • 1. Cell lines were expanded from freezer stocks according to standard procedures. • 2. […] • 1. […] Compound antagonist activity was measured on a FLIPR Tetra (MDS). Calcium mobilization was monitored for 2 minutes and 10 μL EC80 agonist in HBSS/20 mM Hepes was added to the cells 5 seconds into the assay. • 1. Compound activity was analyzed using CBIS data analysis suite (ChemInnovation, CA). • 2. […]
Use % as the unit, but write only the number.

Answered cases to consult:
Compound | inhibition at 10 µM, %
[2H]C([2H])([2H])[C@@]([2H])(N(C)C)C([2H])([2H])n1ccc2cc(OC)ccc21 [Compound 5] | 38.1
CC(Cc1ncn2cc(F)ccc12)N(C)C (racemic) [Compound 93] | 97.1
C[C@H](Cn1ccc2cc(S(F)(F)(F)(F)F)ccc21)N(C)C [Compound 2] | 76.4
C[C@H](Cn1ccc2cc(OC3CC3)ccc21)N(C)C [Compound 1] | 20.7
COc1ccc2c(ccn2C[C@@H](C)N(C)C)c1 [AAZ-A-154, reference compound] | 35

query: Any idea what inhibition at 10 µM was measured for COc1ccn2c(CC(C)N(C)C)ncc2c1 (racemic) [Compound 92] ?
result: 7.2

query: Any idea what inhibition at 10 µM was measured for C[C@H](Cn1ccc2c3c(ccc21)OCCC3)N(C)C [Compound 3] ?
result: 98.1

query: Any idea what inhibition at 10 µM was measured for C[C@H](Cn1ccc2cc(S(=O)(=O)C3CC3)ccc21)N(C)C [Compound 4] ?
result: 6.2

query: Any idea what inhibition at 10 µM was measured for COc1ccn2c(CC(C)N(C)C)cnc2c1 (racemic) [Compound 91] ?
result: 6.1

----------
biological target: 5-HT2B receptor (Homo sapiens, UniProt P41595); construct: host or cells: unnamed cell lines; assay: Calcium mobilization assay, agonist format, 5-HT2B; type: cell-based; details: % activity relative to control ligand, read-out: 5-HT2B agonist efficacy @5 µM
Sequence (P41595 whole entry): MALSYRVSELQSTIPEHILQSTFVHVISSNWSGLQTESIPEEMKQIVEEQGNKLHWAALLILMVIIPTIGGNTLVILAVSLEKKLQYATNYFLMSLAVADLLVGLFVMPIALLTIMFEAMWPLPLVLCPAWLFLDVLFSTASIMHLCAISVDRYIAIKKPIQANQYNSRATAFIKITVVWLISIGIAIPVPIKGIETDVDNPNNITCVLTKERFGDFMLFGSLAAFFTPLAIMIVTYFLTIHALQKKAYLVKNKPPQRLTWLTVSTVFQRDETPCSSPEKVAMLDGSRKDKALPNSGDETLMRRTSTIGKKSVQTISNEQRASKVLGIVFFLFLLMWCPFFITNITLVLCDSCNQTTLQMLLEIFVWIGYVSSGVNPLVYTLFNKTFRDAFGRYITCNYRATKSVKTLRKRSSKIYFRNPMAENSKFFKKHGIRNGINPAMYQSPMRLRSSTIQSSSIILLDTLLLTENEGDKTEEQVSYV
The entries below come with measured activation at 5 µM values attached.
Use % as the unit, but write only the number.

Answered cases to consult:
Compound | Test System | Result
COc1ccn2c(CC(C)N(C)C)cnc2c1 (racemic) [Compound 91] | 5-HT2B receptor (Homo sapiens, UniProt P41595) | 1
C[C@H](Cn1ccc2c3c(ccc21)OCCC3)N(C)C [Compound 3] | 5-HT2B receptor (Homo sapiens, UniProt P41595) | 1
CC(Cc1ncn2cc(F)ccc12)N(C)C (racemic) [Compound 93] | 5-HT2B receptor (Homo sapiens, UniProt P41595) | 2.7
[2H]C([2H])([2H])[C@@]([2H])(N(C)C)C([2H])([2H])n1ccc2cc(OC)ccc21 [Compound 5] | 5-HT2B receptor (Homo sapiens, UniProt P41595) | 3

query: Item: COc1ccc2c(ccn2C[C@@H](C)N(C)C)c1 [AAZ-A-154, reference compound] Test system: 5-HT2B receptor (Homo sapiens, UniProt P41595) Read-out: activation at 5 µM Value: ?
result: -2.9

query: Item: C[C@H](Cn1ccc2cc(S(=O)(=O)C3CC3)ccc21)N(C)C [Compound 4] Test system: 5-HT2B receptor (Homo sapiens, UniProt P41595) Read-out: activation at 5 µM Value: ?
result: -0.6

query: Item: COc1ccn2c(CC(C)N(C)C)ncc2c1 (racemic) [Compound 92] Test system: 5-HT2B receptor (Homo sapiens, UniProt P41595) Read-out: activation at 5 µM Value: ?
result: 2

query: Item: C[C@H](Cn1ccc2cc(OC3CC3)ccc21)N(C)C [Compound 1] Test system: 5-HT2B receptor (Homo sapiens, UniProt P41595) Read-out: activation at 5 µM Value: ?
result: -0.7

query: Item: C[C@H](Cn1ccc2cc(S(F)(F)(F)(F)F)ccc21)N(C)C [Compound 2] Test system: 5-HT2B receptor (Homo sapiens, UniProt P41595) Read-out: activation at 5 µM Value: ?
result: 6.4

----------
The entries below come with measured activation at 10 µM values attached.
Biological target: 5-HT2A receptor (Homo sapiens, UniProt P28223)
Construct: host or cells: unnamed cell lines
Sequence (P28223 whole entry): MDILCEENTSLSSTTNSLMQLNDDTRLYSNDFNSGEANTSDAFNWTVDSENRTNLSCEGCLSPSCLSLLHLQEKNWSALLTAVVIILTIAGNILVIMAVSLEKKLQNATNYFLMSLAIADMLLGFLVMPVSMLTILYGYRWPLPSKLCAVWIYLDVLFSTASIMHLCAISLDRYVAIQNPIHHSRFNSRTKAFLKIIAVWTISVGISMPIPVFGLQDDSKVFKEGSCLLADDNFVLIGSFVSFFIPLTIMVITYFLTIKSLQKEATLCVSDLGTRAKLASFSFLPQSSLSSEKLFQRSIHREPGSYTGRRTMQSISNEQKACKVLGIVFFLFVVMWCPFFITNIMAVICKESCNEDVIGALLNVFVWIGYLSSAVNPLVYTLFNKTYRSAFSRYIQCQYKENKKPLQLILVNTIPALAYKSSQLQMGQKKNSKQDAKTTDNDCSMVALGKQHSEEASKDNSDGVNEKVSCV
Experiment: Calcium mobilization assay, agonist format, 5-HT2A
Format: cell-based
Details: % activity relative to control ligand, read-out: 5-HT2A agonist efficacy @10 µM
Protocol: Protocol—in vitro testing at select 5-hydroxytryptamine (5-HT; serotonin) receptors was conducted. • 1. Cell lines were expanded from freezer stocks according to standard procedures. • 2. […] • 1. […] Compound agonist activity was measured on a FLIPR Tetra (MDS). Calcium mobilization was monitored for 2 minutes and 10 μL 4× sample in HBSS/20 mM Hepes was added to the cells 5 seconds into the assay. • 1. Compound activity was analyzed using CBIS data analysis suite (ChemInnovation, CA). • 2. […]
Express the reported value numerically, then name its unit.

Compound | Measure | Result
C[C@H](Cn1ccc2cc(OC3CC3)ccc21)N(C)C [Compound 1] | activation at 10 µM | -1.4%
C[C@H](Cn1ccc2cc(S(=O)(=O)C3CC3)ccc21)N(C)C [Compound 4] | activation at 10 µM | -1.5%
COc1ccn2c(CC(C)N(C)C)ncc2c1 (racemic) [Compound 92] | activation at 10 µM | 0.3%

Please turn your attention to the following entry.
query: Any idea what activation at 10 µM was measured for C[C@H](Cn1ccc2cc(S(F)(F)(F)(F)F)ccc21)N(C)C [Compound 2] ?
result: 4.4%

----------
molecular target: 5-HT2A receptor (Homo sapiens, UniProt P28223); construct: host or cells: unnamed cell lines; experiment: Calcium mobilization assay, agonist format, 5-HT2A; type: cell-based; settings: % activity relative to control ligand, read-out: 5-HT2A agonist efficacy @10 µM
The entries below come with measured activation at 10 µM values attached.
Use % as the unit, but write only the number.

Answered cases to consult:
Compound | Test System | Result
[2H]C([2H])([2H])[C@@]([2H])(N(C)C)C([2H])([2H])n1ccc2cc(OC)ccc21 | 5-HT2A receptor (Homo sapiens, UniProt P28223) | 2
COc1ccn2c(CC(C)N(C)C)cnc2c1 (racemic) | 5-HT2A receptor (Homo sapiens, UniProt P28223) | 0.6
C[C@H](Cn1ccc2c3c(ccc21)OCCC3)N(C)C | 5-HT2A receptor (Homo sapiens, UniProt P28223) | 9.7

query: Any idea what activation at 10 µM was measured for COc1ccc2c(ccn2C[C@@H](C)N(C)C)c1 [AAZ-A-154, reference compound] ?
result: 1

query: Any idea what activation at 10 µM was measured for CC(Cc1ncn2cc(F)ccc12)N(C)C (racemic) ?
result: 1.8
